Attribution: patent US10065950B2

For each record, write down the corresponding pIC50.
Molecular target: HIV-1 pNL4-3 integrase (Human immunodeficiency virus type 1 group M subtype B (isolate NY5) (HIV-1), UniProt P12497)
Assay: Determination of enzyme (HIV integrase) inhibitory activity
Settings: calculated from inhibition rate (fluorescence)
Interpret pIC50 as the negative base-10 log of the concentration measured in mol/L.

# input Look up pIC50: "COC[C@H]1CN(CC2CC2)C(=O)c2c(O)c(=O)c(-c3nnc(Cc4ccc(F)cc4F)s3)cn21"
# output 8.03

# input Look up pIC50: "CCNC(=O)[C@]1(C)Cn2cc(-c3nnc(Cc4ccc(F)cc4)s3)c(=O)c(O)c2C(=O)N1C(C)C"
# output 7.96

# input Look up pIC50: "CCNC(=O)[C@]1(C)CN(CC)C(=O)c2c(O)c(=O)c(-c3ncc(Cc4ccc(F)cc4)s3)cn21"
# output 7.92

# input Look up pIC50: "CCN1C(=O)c2c(O)c(=O)c(-c3nnc(Cc4ccc(F)cc4)s3)cn2[C@@H](C)[C@@H]1COC"
# output 8.05

# input Look up pIC50: CCC(=O)NCC1CN(C(C)C)C(=O)c2c(O)c(=O)c(-c3ncc(Cc4ccc(F)cc4F)s3)cn21 (stereo not shown)
# output 8.01

# input Look up pIC50: "CCN1C[C@H](COC)n2cc(-c3nnc(Cc4ccc(F)cc4F)s3)c(=O)c(O)c2C1=O"
# output 8.18

# input Look up pIC50: "CCN1C(=O)c2c(O)c(=O)c(-c3nnc(Cc4ccc(F)cc4F)s3)cn2C[C@@H]1COCCOC"
# output 7.89

# input Look up pIC50: "COC[C@@H]1Cn2cc(-c3nnc(Cc4ccc(F)cc4)s3)c(=O)c(O)c2C(=O)N1C1CCCC1"
# output 8.17

# input Look up pIC50: "COCCOC[C@H]1Cn2cc(-c3ncc(Cc4ccc(F)cc4F)s3)c(=O)c(O)c2C(=O)N1CC(C)C"
# output 7.77

# input Look up pIC50: "CC(C)N1C(=O)c2c(O)c(=O)c(-c3nnc(Cc4ccc(F)cc4)s3)cn2C[C@@]1(C)C(=O)N1CCOCC1"
# output 8.01

# input Look up pIC50: "CO[C@@H](C)[C@H]1CN(C(C)C)C(=O)c2c(O)c(=O)c(-c3ncc(Cc4ccc(F)cc4)s3)cn21"
# output 8.07

# input Look up pIC50: "CC[C@H](C)N1C[C@@H](COC)n2cc(-c3nnc(Cc4ccc(F)cc4)s3)c(=O)c(O)c2C1=O"
# output 7.92

# input Look up pIC50: "CC(=O)NC[C@@H]1Cn2cc(-c3nnc(Cc4ccc(F)cc4F)s3)c(=O)c(O)c2C(=O)N1C(C)C"
# output 8.07

----------
Target: HIV-1 pNL4-3 integrase (Human immunodeficiency virus type 1 group M subtype B (isolate NY5) (HIV-1), UniProt P12497)
Experiment: Determination of enzyme (HIV integrase) inhibitory activity
Details: calculated from inhibition rate (fluorescence)
For each record, write down the corresponding pIC50.
Interpret pIC50 as the negative base-10 log of the concentration measured in mol/L.

# input Look up pIC50: "COC[C@H]1CN(C2CCC2)C(=O)c2c(O)c(=O)c(-c3nnc(Cc4ccc(F)cc4)s3)cn21"
# output 8.06

# input Look up pIC50: COC[C@@H]1Cn2cc(-c3nnc(Cc4ccc(F)cc4)s3)c(=O)c(O)c2C(=O)N1C(C)C1CC1 (stereo partly drawn) [Example 198]
# output 8.24

# input Look up pIC50: "CO[C@@H](C)COC[C@H]1CN(C2CC2)C(=O)c2c(O)c(=O)c(-c3nnc(Cc4ccc(F)cc4)s3)cn21"
# output 7.92
